- Study Target: Alkaline phosphatase, placental type (Homo sapiens) (UniProt P05187)
- Test Method Notes: PLAP enzyme inhibitors, dose response, selectivity assay for human IAP inhibitor project, biochemical, uHTS hits, luminescence (AID 488892)
- Recorded Conditions: purified PLAP, CDP-Star luminescence, 30 min
Activity calls are given as the source filed them.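 The calls were made as follows: active = mean IC50 below a set limit; inactive = the rest.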
Respond with a class label; see yes (active), no (inactive)

The following compounds have reported results that may help.
O=C(/C=C/c1ccccc1O)c1ccco1    yes
O=C1Nc2ccccc2/C1=N\N=C\c1ccc(O)c(O)c1    yes

## Task Hey, what did the test say about CC[n+]1c(/C=C/c2c[nH]c3ccccc23)ccc2cc(C)ccc21 ?
## Result yes

## Task Each compound tested received a call. Report the one for O=C1C2C3C=CC(C3)C2C(=O)N1c1n[nH]c(-c2cccnc2)n1 (stereo unspecified) .
## Result no

## Task Hey, what did the test say about CN(C)c1ccc(N=Nc2ccccc2Br)cc1 ?
## Result yes

----------
pIC50 tested on Alkaline phosphatase, placental type (Homo sapiens): recorded values
// pIC50 is dimensionless: -log10 of concentration (M)

Please review the entries below; each comes with its answer.
CNc1nnc(-c2cc3ccccc3oc2=O)s1    5.39
COc1ccc(C=C2C(=O)c3ccccc3C2=O)cc1O    4.83

Please turn your attention to the following entry.
## Task Could you share what pIC50 was measured for COc1cc(/C=C(\C#N)C(=O)c2ccc(O)c(O)c2)cc(I)c1O , tested on Alkaline phosphatase, placental type (Homo sapiens)?
## Result 4.81

----------
- Study Target: Alkaline phosphatase, placental type (Homo sapiens)
pIC50: −log10 of the molar value.
# label = fulfilled if pIC50 >= 5 else not fulfilled

A selection of reference data follows.
N#C/C(=C\c1ccc(O)c(O)c1)C(=O)c1ccc(O)c(O)c1    fulfilled
Oc1ccc(N=Nc2c(O)ccc3ccccc23)cc1    not fulfilled
c1ccc(CSCCc2ccncc2)cc1    not fulfilled
CCN1/C(=C\c2ccc3ccccc3[n+]2CC)Sc2cc(C)ccc21    not fulfilled

## Task Textbook exercise: given the entry O=C(NN1C(=O)/C(=C/c2ccc(O)c([N+](=O)[O-])c2)SC1=S)c1ccccc1Cl , state whether its pIC50 is greater than or equal to 5.
## Result not fulfilled

----------
- Study Target: Alkaline phosphatase, placental type (Homo sapiens) (UniProt P05187)
Below: a set of entries, each annotated with reported pIC50.
Conceptually, pIC50 converts a concentration in mol/L into minus its log10.

O=c1c2cc(O)c(O)cc2oc2cc(O)c(C3OC(CO)C(O)C(O)C3O)c(O)c12 (stereo not drawn)    5.57

## Task Write down the reported pIC50 of CN(C)c1ccc2nc3c(=O)[nH]c(=O)nc-3n(CC(O)C(O)C(O)CO)c2c1 (stereo not drawn) , test system: Alkaline phosphatase, placental type (Homo sapiens) (UniProt P05187).
## Result 4.52

## Task Missing value: pIC50, Alkaline phosphatase, placental type (Homo sapiens) (UniProt P05187), entry CCN(CC)c1ccc(N=Nc2nn(C)c(C)c2[N+](=O)[O-])cc1 . Fill in?
## Result 4.31
